# ASSAY INFO: Solubility pH 7
# SETUP CONDITIONS: pH 7, aqueous buffer
METRIC NAME: solubility (µg/mL)
Expressed in µg/mL, but write only the number.

INSERT INTO results (compound, reported_value) VALUES
  ('COc1ccc(C[C@H](NC(=O)[C@@H](C)NC(=O)[C@@H]2CNC(=O)C2)C(=O)N[C@@H](CC2CCCC2)C(=O)[C@@]2(C)CO2)cc1 [Compound C-1068]', 4410),
  ('COc1ccc(C[C@H](NC(=O)[C@@H](C)NC(=O)[C@@H]2CC[C@H](O)C2)C(=O)N[C@@H](CC2CCCC2)C(=O)[C@@]2(C)CO2)cc1 [Compound C-1078]', 873);

Task: Return reported solubility; argument: C[C@@H](NC(=O)[C@H]1CC[C@H](O)CC1)C(=O)N[C@@H](Cc1ccc(S(C)(=O)=O)cc1)C(=O)N[C@@H](CC1=CCCC1)C(=O)[C@@]1(C)CO1 [Compound C-1096]
Result: 917

====

# EXPERIMENTAL TARGET: immunoproteasome subunit LMP7 (Homo sapiens)
# Construct: Lysate from the human acute lymphoblastic leukemia cell line, MOLT-4; endogenous in cells; host or cells: MOLT-4
# ASSAY INFO: Proteasome active-site ELISA (ProCISE), LMP7, MOLT-4 lysate
# Type: biochemical
# SETUP CONDITIONS: MOLT4 lysate, 1 h continuous treatment, 25° C.
Rule: IC50 below 70 nM gives rule met. Equal to or above 70 nM gives rule not met.

Examples from the recorded data:
INSERT INTO assay_data (test_smiles, experimental_target, class_name) VALUES
  ('COc1ccc(C[C@H](NC(=O)[C@H](C)NC(=O)CN2CCOCC2)C(=O)N[C@@H](C[C@H]2CCCO2)C(=O)[C@@]2(C)CO2)cc1', 'immunoproteasome subunit LMP7 (Homo sapiens)', 'rule not met'),
  ('COc1ccc(C[C@H](NC(=O)[C@H](C)NC(=O)CN2CCOCC2)C(=O)N[C@@H](CC2CC=CC2)C(=O)[C@@]2(C)CO2)cc1', 'immunoproteasome subunit LMP7 (Homo sapiens)', 'rule met'),
  ('C[C@H](NC(=O)CN1CCOCC1)C(=O)N[C@@H](Cc1ccc(C(N)=O)cc1)C(=O)N[C@@H](CC1CCCC1)C(=O)[C@@]1(C)CO1', 'immunoproteasome subunit LMP7 (Homo sapiens)', 'rule not met'),
  ('COc1ccc(C[C@H](NC(=O)[C@@H](C)NC(=O)[C@H]2CC[C@H](O)CC2)C(=O)N[C@@H](CC2=CCCCC2)C(=O)[C@@]2(C)CO2)cc1', 'immunoproteasome subunit LMP7 (Homo sapiens)', 'rule met');

Task: Quick check: does COc1ccc(C[C@H](NC(=O)[C@@H](C)NC(=O)[C@H]2C[C@H](O)C2)C(=O)N[C@@H](CC2CCCC2)C(=O)[C@@]2(C)CO2)cc1 have IC50 under 70 nM?
Result: rule not met

Task: Quick check: does COc1ccc(C[C@H](NC(=O)[C@H](CO)NC(=O)CN2CCOCC2)C(=O)N[C@@H](CC2=CCCCC2)C(=O)[C@@]2(C)CO2)cc1 have IC50 under 70 nM?
Result: rule not met

====

# ASSAY INFO: Solubility pH 7
# SETUP CONDITIONS: pH 7, aqueous buffer
// values below are reported solubility
Expressed in µg/mL, but write only the number.

See these solved cases before continuing.
INSERT INTO measurements (compound, reported_value) VALUES
  ('C[C@H](NC(=O)CN1CCOCC1)C(=O)N[C@@H](Cc1ccc2c(c1)CCNS2(=O)=O)C(=O)N[C@@H](CC1CCCC1)C(=O)[C@@]1(C)CO1 [Compound C-1091]', 230),
  ('COc1ccc(C[C@H](NC(=O)[C@H](C)NC(=O)CN2CCOCC2)C(=O)N[C@@H](CC2CC(F)(F)C2)C(=O)[C@@]2(C)CO2)cc1 [Compound C-1093]', 6110),
  ('COc1ccc(C[C@H](NC(=O)[C@H](CO)NC(=O)CN2CCOCC2)C(=O)N[C@@H](CC2=CCCCC2)C(=O)[C@@]2(C)CO2)cc1 [Compound C-1104]', 3270),
  ('C[C@]1(C(=O)[C@H](CC2=CCCCC2)NC(=O)[C@H](Cc2ccc(S(C)(=O)=O)cc2)NC(=O)[C@H](CO)NC(=O)CN2CCOCC2)CO1 [Compound C-1110]', 8380),
  ('Cc1ccc(C[C@H](NC(=O)[C@H](C)NC(=O)CN2CCOCC2)C(=O)N[C@@H](CC2CCCC2)C(=O)[C@@]2(C)CO2)cc1O [Compound C-1117]', 1560);

Now for another entry.
Task: Return reported solubility; argument: COc1ccc([C@@H](O)[C@H](NC(=O)[C@H](C)NC(=O)CN2CCOCC2)C(=O)N[C@@H](CC2CCCC2)C(=O)[C@@]2(C)CO2)cc1 [Compound C-1022]
Result: 4050
